Origin of measurements: patent US10517889B2

System: human peripheral blood mononuclear cells (PBMCs)
ASSAY PROTOCOL: Human PBMC activation assay, cytokine levels (IL-10, IL-6, MCP-1, TNF-α) in supernatant after 24 hours (Example 9)
EXPERIMENTAL CONTEXT: human PBMC supernatant after 24 hours; 1.6 μM oligonucleotide
MEASURE: Levels of MCP-1 (pg/mL)

>>> numeric_value("736697 (antisense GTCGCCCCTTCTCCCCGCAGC; chemistry not fully specified) [compound 736697]")
693.9
>>> numeric_value("830037 (antisense CTATTGGCTGATCTGG; 3-10-3 cEt gapmer, further chemistry not given here) [compound 830037]")
1085.9
>>> numeric_value("798781 (CGTAAGATTCACAGCA; 3-10-3 cEt gapmer, further chemistry not given here) [compound 798781]")
597.2
>>> numeric_value("829994 (GGAGGCAGGGCCGCGA; 3-10-3 cEt gapmer, further chemistry not given here) [compound 829994]")
1300.0

----------
ASSAY PROTOCOL: Hematology assays after subcutaneous administration in beagle dogs (Example 8)
Type: in vivo
EXPERIMENTAL CONTEXT: 30 mg/kg subcutaneous days 1, 3, 5, 8, 15, 22, 29
Quick reference: MCV of the listed items.
MEASURE: MCV (fL)

>>> numeric_value("798781 (CGTAAGATTCACAGCA; 3-10-3 cEt gapmer, further chemistry not given here) [compound 798781]")
67
>>> numeric_value("829994 (GGAGGCAGGGCCGCGA; 3-10-3 cEt gapmer, further chemistry not given here) [compound 829994]")
66
>>> numeric_value("790615 (CCAATGAGAATGCTTC; 3-10-3 cEt gapmer, further chemistry not given here) [compound 790615]")
68
>>> numeric_value("830121 (AGAATCAAGCCCTGGC; 3-10-3 cEt gapmer, further chemistry not given here) [compound 830121]")
66
>>> numeric_value("830037 (antisense CTATTGGCTGATCTGG; 3-10-3 cEt gapmer, further chemistry not given here) [compound 830037]")
66
>>> numeric_value("830025 (antisense TTTGTAAATCGAAAGC; 3-10-3 cEt gapmer, further chemistry not given here) [compound 830025]")
67

----------
# maps each entry to its % Inhibition
System: human SMAD7 mRNA
ASSAY PROTOCOL: Antisense inhibition of human SMAD7 mRNA expression in Hep3B cells by 3-10-3 cEt gapmers, 10,000 nM, electroporation (Example 2)
Assay type: cell-based
EXPERIMENTAL CONTEXT: SMAD7 mRNA, Hep3B cells, electroporation with 10,000 nM antisense oligonucleotide, approximately 24 hours, primer probe set RTS5062, relative to untreated control cells
Strand notation (5' to 3'): a small letter for the sugar, then the base; units joined by * are phosphorothioate-linked, units joined directly phosphodiester-linked; [ ] holds rarer units or linkages, { } end groups; capitals alone tell only the bases. k = constrained ethyl (cEt); [5mC] = 5-methylcytosine; d = 2'-deoxy (DNA)
MEASURE: % Inhibition (%)

>>> numeric_value("829911 (antisense k[5mC]*kG*kA*d[5mC]*d[5mC]*dA*dA*dA*dG*dA*dG*dT*dT*kT*kG*k[5mC]) [compound 829911]")
52
>>> numeric_value("829937 (kT*kT*k[5mC]*dA*dG*d[5mC]*dT*dA*dG*dG*dT*dG*dA*kT*kA*kA; antisense) [compound 829937]")
0
>>> numeric_value("829847 (antisense kT*kG*kT*d[5mC]*d[5mC]*dG*dA*dA*dT*dT*dG*dA*dG*k[5mC]*kT*kG) [compound 829847]")
64
>>> numeric_value("830008 (antisense kT*kA*kG*dA*dG*dG*d[5mC]*dT*d[5mC]*dT*dA*dT*dT*kT*k[5mC]*kT) [compound 830008]")
0
>>> numeric_value("829964 (k[5mC]*kA*k[5mC]*d[5mC]*dT*dA*dG*dT*dT*d[5mC]*dG*d[5mC]*dA*kG*kA*kG; antisense) [compound 829964]")
3
>>> numeric_value("829946 (kG*k[5mC]*kA*dG*d[5mC]*d[5mC]*dA*dG*dT*dT*dA*dA*dT*k[5mC]*kA*kT; antisense) [compound 829946]")
44
>>> numeric_value("830006 (antisense kA*k[5mC]*kT*d[5mC]*dA*d[5mC]*d[5mC]*dA*dG*dT*dT*dG*dG*kT*kT*kT) [compound 830006]")
0
>>> numeric_value("829976 (kA*k[5mC]*kA*dA*dA*dA*dG*dA*dG*dG*d[5mC]*d[5mC]*dG*k[5mC]*k[5mC]*kT; antisense) [compound 829976]")
10
>>> numeric_value("829876 (antisense k[5mC]*k[5mC]*kG*dG*dG*dT*dT*dG*dT*d[5mC]*d[5mC]*dA*dG*kT*kG*kT) [compound 829876]")
30
>>> numeric_value("829924 (k[5mC]*kT*k[5mC]*dA*dT*dT*dG*dA*dG*d[5mC]*dT*dA*dA*kG*kA*kA; antisense) [compound 829924]")
25
>>> numeric_value("829868 (antisense kA*kG*kT*dG*dT*dG*dG*d[5mC]*dG*dG*dA*d[5mC]*dT*kT*kG*kA) [compound 829868]")
52
>>> numeric_value("829844 (antisense k[5mC]*kG*kA*dA*dT*dT*dG*dA*dG*d[5mC]*dT*dG*dT*k[5mC]*k[5mC]*kG) [compound 829844]")
49
>>> numeric_value("829834 (kG*kT*kG*dT*dG*dA*d[5mC]*d[5mC]*dG*dA*dT*d[5mC]*d[5mC]*k[5mC]*k[5mC]*kA; antisense) [compound 829834]")
29
>>> numeric_value("829982 (k[5mC]*kG*kG*dT*dG*dA*dT*dT*dG*d[5mC]*d[5mC]*dT*dT*kG*kA*kT; antisense) [compound 829982]")
44
>>> numeric_value("829884 (antisense kT*kG*k[5mC]*dA*dG*dG*d[5mC]*dT*dG*dT*dA*d[5mC]*dG*k[5mC]*k[5mC]*kT) [compound 829884]")
24
>>> numeric_value("829890 (antisense kA*kA*kG*d[5mC]*d[5mC]*d[5mC]*dG*dT*d[5mC]*d[5mC]*dA*d[5mC]*dG*kG*k[5mC]*kT) [compound 829890]")
0
>>> numeric_value("829889 (antisense k[5mC]*kG*kT*d[5mC]*d[5mC]*dA*d[5mC]*dG*dG*d[5mC]*dT*dG*d[5mC]*kT*kG*k[5mC]) [compound 829889]")
48
>>> numeric_value("829861 (antisense k[5mC]*k[5mC]*kA*dT*d[5mC]*d[5mC]*dA*d[5mC]*d[5mC]*dT*d[5mC]*d[5mC]*d[5mC]*kG*k[5mC]*kG) [compound 829861]")
35
>>> numeric_value("829892 (antisense kG*kA*kT*d[5mC]*dT*dG*d[5mC]*dA*d[5mC]*dG*dG*dT*dA*kA*kA*kG) [compound 829892]")
32
>>> numeric_value("829848 (antisense kT*kT*kG*dT*d[5mC]*d[5mC]*dG*dA*dA*dT*dT*dG*dA*kG*k[5mC]*kT) [compound 829848]")
47
>>> numeric_value("829980 (kT*kT*kG*dA*dT*dA*dT*dT*dT*dA*dG*d[5mC]*dT*kG*kT*k[5mC]; antisense) [compound 829980]")
56
>>> numeric_value("829989 (kG*kG*k[5mC]*d[5mC]*dG*d[5mC]*dG*dA*dG*dG*d[5mC]*dG*dG*kT*kG*kA; antisense) [compound 829989]")
2
>>> numeric_value("829918 (antisense kG*kA*kG*dT*dG*dT*dA*dT*dG*dA*dG*dT*dT*kG*kT*kA) [compound 829918]")
53
>>> numeric_value("829832 (kT*kG*kA*d[5mC]*d[5mC]*dG*dA*dT*d[5mC]*d[5mC]*d[5mC]*d[5mC]*dA*kG*kG*k[5mC]; antisense) [compound 829832]")
51
